Recorded AIRE transcriptional activation functional score for the following variants
B1: library; numbered along this chain (parent)
chain: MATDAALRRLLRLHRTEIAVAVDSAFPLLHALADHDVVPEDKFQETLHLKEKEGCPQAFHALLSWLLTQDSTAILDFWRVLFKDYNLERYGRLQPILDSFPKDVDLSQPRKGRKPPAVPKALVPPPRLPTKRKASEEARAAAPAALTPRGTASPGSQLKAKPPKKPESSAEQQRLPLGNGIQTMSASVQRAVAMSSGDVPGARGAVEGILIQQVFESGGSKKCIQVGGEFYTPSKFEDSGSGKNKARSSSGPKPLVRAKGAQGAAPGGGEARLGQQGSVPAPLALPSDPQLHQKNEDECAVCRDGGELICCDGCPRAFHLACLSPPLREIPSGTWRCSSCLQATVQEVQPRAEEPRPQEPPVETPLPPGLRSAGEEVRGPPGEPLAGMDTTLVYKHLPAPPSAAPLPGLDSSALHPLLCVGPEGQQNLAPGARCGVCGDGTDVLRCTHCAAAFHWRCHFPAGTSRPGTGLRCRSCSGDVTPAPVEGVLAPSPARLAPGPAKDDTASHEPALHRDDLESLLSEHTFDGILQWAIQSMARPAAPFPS

# Variants of: B1
# procedure_summary: AIRE transcriptional activation functional score (insulin promoter-GFP; nonsense median 0, synonymous median 1) (normalised score); higher = higher AIRE activity (more reporter activation)
# assay_conditions: with insulin promoter-GFP reporter in HEK293
observation_type: AIRE transcriptional activation functional score

>  <mutation_spec>
H512N

>  <experimental_value>
1.02

$$$$
>  <mutation_spec>
M184R

>  <experimental_value>
0.932

$$$$
>  <mutation_spec>
D439N

>  <experimental_value>
1.07

$$$$
>  <mutation_spec>
S217C

>  <experimental_value>
1.16

$$$$
>  <mutation_spec>
G260Y

>  <experimental_value>
1.14

$$$$
>  <mutation_spec>
G260N

>  <experimental_value>
1.12

$$$$
>  <mutation_spec>
L409V

>  <experimental_value>
0.903

$$$$
>  <mutation_spec>
K50N

>  <experimental_value>
1.59

$$$$
>  <mutation_spec>
P126N

>  <experimental_value>
0.042

$$$$
>  <mutation_spec>
P148V

>  <experimental_value>
1.45

$$$$
>  <mutation_spec>
E53T

>  <experimental_value>
1.37

$$$$
>  <mutation_spec>
G382T

>  <experimental_value>
0.841

$$$$
>  <mutation_spec>
A19G

>  <experimental_value>
0.563

$$$$
>  <mutation_spec>
M388Q

>  <experimental_value>
0.232

$$$$
>  <mutation_spec>
F77W

>  <experimental_value>
-0.255

$$$$
>  <mutation_spec>
S324E

>  <experimental_value>
0.773

$$$$
>  <mutation_spec>
D36L

>  <experimental_value>
-0.0069

$$$$
>  <mutation_spec>
C311A

>  <experimental_value>
1.11

$$$$
>  <mutation_spec>
E237R

>  <experimental_value>
0.603

$$$$
>  <mutation_spec>
M194S

>  <experimental_value>
0.554

$$$$
>  <mutation_spec>
D442E

>  <experimental_value>
0.869

$$$$
>  <mutation_spec>
A386K

>  <experimental_value>
1.1

$$$$

Just for reference, the supplement of paper PMC12667976 is where these values come from.
